Data provenance: paper PMC9838217

Reported binding signal values are given for each entry in this list.
Target: SALL4 ZFC4 R900W (HT-SELEX) (Mus musculus, UniProt Q8BX22 870-940, R900W)
Sequence: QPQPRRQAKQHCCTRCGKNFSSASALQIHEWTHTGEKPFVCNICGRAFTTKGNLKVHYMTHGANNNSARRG
Assay: HT-SELEX; high values mean tight binding
Conditions: protein: recombinant; vector His6-GST; dsDNA, one strand shown
REPORTED ENDPOINT: binding signal (fold-change vs cycle 0)

>>> value_reported("ATATAA")
2.65
>>> value_reported("CGTTAC")
0.932
>>> value_reported("CAACTA")
1.31
>>> value_reported("ACAATC")
1.38
>>> value_reported("CCGGAG")
0.255
>>> value_reported("ATATGC")
1.07
>>> value_reported("AGCGGC")
0.0644
>>> value_reported("GCTGCA")
0.256
>>> value_reported("CCCCAA")
0.471
>>> value_reported("CTTCCC")
0.599
>>> value_reported("CGCCAG")
0.103
>>> value_reported("CAATGA")
1.47
>>> value_reported("AGTCAG")
0.958
>>> value_reported("TTGCAA")
1.09
>>> value_reported("CTATGA")
1.43
>>> value_reported("CCGACA")
0.311
>>> value_reported("AACTTA")
2.11
>>> value_reported("AGACTC")
0.928
>>> value_reported("CGTTTC")
0.738
>>> value_reported("CTTCGA")
0.789
>>> value_reported("AATTTA")
2.35
>>> value_reported("ATTCAC")
1.45
>>> value_reported("GCTGGA")
0.37
>>> value_reported("TCCCAA")
0.826
>>> value_reported("CCAGCG")
0.131
>>> value_reported("ACCACG")
0.428
>>> value_reported("CGCAGA")
0.265
>>> value_reported("AGGGGA")
0.608
>>> value_reported("AAGCGG")
0.29
>>> value_reported("AATGAC")
1.36
>>> value_reported("CGGACC")
0.198
>>> value_reported("ATGTCG")
0.603
>>> value_reported("ACTTGA")
1.5
>>> value_reported("ACGATG")
0.794
>>> value_reported("CCAATC")
0.854
>>> value_reported("ACTCTC")
1.05
>>> value_reported("CATAGG")
0.918
>>> value_reported("AGGTAA")
1.58
>>> value_reported("CAAGAG")
1.03
>>> value_reported("CATGGC")
0.357
>>> value_reported("ATACGC")
0.531
>>> value_reported("AGGTTG")
0.894
>>> value_reported("TGTCAA")
1.27
>>> value_reported("CGCTCC")
0.165
>>> value_reported("ACTTAT")
2.19
>>> value_reported("AAAAAT")
2.16
>>> value_reported("GAGGAA")
1.03
>>> value_reported("ACGACT")
0.718
>>> value_reported("AACAAA")
1.8

###

Biological target: SALL4 ZFC4 R900W (HT-SELEX) (Mus musculus, UniProt Q8BX22 870-940, R900W)
Sequence: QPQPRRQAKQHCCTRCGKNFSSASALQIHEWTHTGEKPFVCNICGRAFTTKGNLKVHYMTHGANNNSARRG
Assay: HT-SELEX; high values mean tight binding
Conditions: protein: recombinant; vector His6-GST; dsDNA, one strand shown
Entries get a class label from measured binding signal. See ranges: lower segment (below 0.7 fold-change vs cycle 0), middle segment (0.7 fold-change vs cycle 0 to below 1 fold-change vs cycle 0), upper segment (1 fold-change vs cycle 0 or more)

>>> label_value("AAAGTA")
"upper segment"
>>> label_value("CATTTA")
"upper segment"
>>> label_value("ATCGGC")
"lower segment"
>>> label_value("GAGCTA")
"middle segment"
>>> label_value("TGCGAA")
"lower segment"
>>> label_value("CTACAA")
"upper segment"
>>> label_value("ATGAAA")
"upper segment"
>>> label_value("ATATTA")
"upper segment"
>>> label_value("CCTTCA")
"upper segment"
>>> label_value("ATACTG")
"upper segment"
>>> label_value("TCGGAA")
"middle segment"
>>> label_value("AAGTCG")
"lower segment"
>>> label_value("ACCGGG")
"lower segment"
>>> label_value("CAATGG")
"middle segment"
>>> label_value("ACGTAT")
"upper segment"
>>> label_value("GGCTGA")
"lower segment"
>>> label_value("AGAGTG")
"middle segment"
>>> label_value("CACACC")
"lower segment"
>>> label_value("AAATTT")
"upper segment"
>>> label_value("AATATT")
"upper segment"
>>> label_value("GGCACA")
"lower segment"
>>> label_value("ATGGGG")
"lower segment"
>>> label_value("ACCTCC")
"lower segment"
>>> label_value("CCATTC")
"middle segment"
>>> label_value("ACTAAG")
"upper segment"
>>> label_value("CGTGCA")
"lower segment"
>>> label_value("GGGAGA")
"lower segment"
>>> label_value("CAATCC")
"middle segment"
>>> label_value("TTAAAA")
"upper segment"
>>> label_value("ATACAG")
"upper segment"
>>> label_value("AAGGTA")
"upper segment"
>>> label_value("ACACGG")
"lower segment"
>>> label_value("GCAAAA")
"middle segment"
>>> label_value("AACGTT")
"upper segment"
>>> label_value("GACTAC")
"middle segment"
>>> label_value("CGGTAC")
"lower segment"
>>> label_value("CGGACG")
"lower segment"
>>> label_value("CGGCGC")
"lower segment"
>>> label_value("ATGGCG")
"lower segment"
>>> label_value("CACTGA")
"middle segment"
>>> label_value("ATTGCA")
"upper segment"
>>> label_value("CTGCTC")
"lower segment"
>>> label_value("CGAGCC")
"lower segment"
>>> label_value("AATTAT")
"upper segment"
>>> label_value("CTCATC")
"upper segment"
>>> label_value("GTAGGA")
"middle segment"
>>> label_value("CTCAGA")
"middle segment"
>>> label_value("CAAAGG")
"middle segment"
>>> label_value("CTAGCC")
"lower segment"
>>> label_value("ATCTTG")
"upper segment"
>>> label_value("ATAGTG")
"upper segment"
>>> label_value("GTCATA")
"upper segment"
>>> label_value("AGTGAT")
"upper segment"
>>> label_value("AAGTCT")
"upper segment"
>>> label_value("ATCATC")
"upper segment"
>>> label_value("ACATAT")
"upper segment"
>>> label_value("ATTCTC")
"upper segment"
>>> label_value("ATAAGC")
"upper segment"
>>> label_value("GCGCCC")
"lower segment"
>>> label_value("ACTTCT")
"upper segment"
>>> label_value("AAGGTC")
"middle segment"
>>> label_value("AGACTG")
"middle segment"
>>> label_value("GCACCA")
"lower segment"
>>> label_value("GGTCCA")
"lower segment"
>>> label_value("CAGTGC")
"lower segment"
>>> label_value("AGACGG")
"lower segment"
>>> label_value("CATTCA")
"upper segment"
>>> label_value("CCCGGC")
"lower segment"
>>> label_value("ACACGT")
"middle segment"
>>> label_value("AAACAG")
"upper segment"
>>> label_value("CCAAGC")
"lower segment"
>>> label_value("GACCGA")
"lower segment"
>>> label_value("CGGCCC")
"lower segment"
>>> label_value("ACCCCT")
"lower segment"
>>> label_value("TCCACA")
"middle segment"
>>> label_value("CTAGAA")
"upper segment"
>>> label_value("ACTCTA")
"upper segment"
>>> label_value("GCACAC")
"lower segment"
>>> label_value("ACGTAC")
"middle segment"
>>> label_value("ATACCC")
"middle segment"
>>> label_value("GCGGCC")
"lower segment"
>>> label_value("ATATGA")
"upper segment"
>>> label_value("CTCCTA")
"upper segment"
>>> label_value("CAAGCA")
"middle segment"
>>> label_value("CAGTAC")
"middle segment"
>>> label_value("ACATCG")
"middle segment"
>>> label_value("CCGCTA")
"lower segment"
>>> label_value("ATGAGC")
"middle segment"

###

Documented binding signal across a set of sequences
Biological target: SALL4 ZFC4 R900W (HT-SELEX) (Mus musculus, UniProt Q8BX22 870-940, R900W)
Sequence: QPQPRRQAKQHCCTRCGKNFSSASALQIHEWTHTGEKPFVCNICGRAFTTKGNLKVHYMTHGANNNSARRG
Experiment: HT-SELEX; high values mean tight binding
Details: protein: recombinant; vector His6-GST; dsDNA, one strand shown
REPORTED ENDPOINT: binding signal (fold-change vs cycle 0)

>>> value_reported("AGCTCC")
0.455
>>> value_reported("AGTACA")
1.43
>>> value_reported("AAATGC")
0.918
>>> value_reported("GGATAA")
1.52
>>> value_reported("GGGGTA")
0.541
>>> value_reported("CCACAC")
0.414
>>> value_reported("CAGTCC")
0.544
>>> value_reported("GGGTCA")
0.513
>>> value_reported("CTTAAC")
1.58
>>> value_reported("GCTTAA")
1.15
>>> value_reported("CCCTTA")
1.06
>>> value_reported("AAAGAT")
2.1
>>> value_reported("ATTCAG")
1.44
>>> value_reported("AGGACC")
0.54
>>> value_reported("TCGTCA")
0.765
>>> value_reported("GGATCA")
0.972
>>> value_reported("CATACA")
1.37
>>> value_reported("CAATAC")
1.3
>>> value_reported("AAACTA")
1.85
>>> value_reported("ATGTGA")
1.44
>>> value_reported("GACCCC")
0.276
>>> value_reported("ACTCCT")
1.15
>>> value_reported("ATCCAA")
1.37
>>> value_reported("CCTGTA")
0.915
>>> value_reported("GAAATC")
1.28
>>> value_reported("TATAGA")
2.02
>>> value_reported("AATCAG")
1.38
>>> value_reported("AATCCA")
1.44
>>> value_reported("GTAATA")
2.09
>>> value_reported("ACTCGA")
0.839
>>> value_reported("AGATTG")
1.41
>>> value_reported("GACTGC")
0.399
>>> value_reported("ATGATA")
2.14
>>> value_reported("CGGTTA")
0.748
>>> value_reported("AATCGT")
1.21
>>> value_reported("AAGGCG")
0.265
>>> value_reported("CACCAG")
0.526
>>> value_reported("CGATGA")
0.797
>>> value_reported("TCCAGA")
0.894
>>> value_reported("CAGGAA")
0.921
>>> value_reported("ACGCAC")
0.27
>>> value_reported("CGGGCC")
0.0506
>>> value_reported("ATGCCC")
0.331
>>> value_reported("ACCTAT")
1.45
>>> value_reported("ATAGAA")
2.13
>>> value_reported("ATTTGC")
0.9
>>> value_reported("CCGAAC")
0.387
>>> value_reported("GGCCCC")
0.0767
>>> value_reported("AGATGA")
1.6
